Assay target: Histone deacetylase 1 (Homo sapiens)
Assay name: Inhibition of recombinant full length human C-terminal FLAG/His-tagged HDAC1 expressed in baculovirus expression system using fluorophore-conjugated substrate by fluorescence assay
Calls of active or inactive are those of the source. No cut-off for these calls is given here.
Assay endpoint: inhibition

A selection of reference data follows.
COC(=O)[C@H](Cc1ccccc1)n1nnc(-c2ccccc2)c1C#Cc1ccccc1	inactive
O=C(NO)[C@@H](Cc1ccccc1)n1nnc(-c2ccccc2)c1C#Cc1ccccc1	inactive
O=C(O)[C@H](Cc1ccccc1)n1nnc(-c2ccccc2)c1C#Cc1ccccc1	inactive
O=C(NO)[C@H](Cc1ccccc1)n1cc(-c2ccccc2)nn1	inactive

Hi! What's the reported inhibition for "CNC(=O)[C@H](Cc1ccccc1)n1nnc(-c2ccccc2)c1C#Cc1ccccc1" on Histone deacetylase 1 (Homo sapiens)?
inactive

====

Assay target: Histone deacetylase 9 (Homo sapiens)
Sequence (Q9UKV0 whole entry): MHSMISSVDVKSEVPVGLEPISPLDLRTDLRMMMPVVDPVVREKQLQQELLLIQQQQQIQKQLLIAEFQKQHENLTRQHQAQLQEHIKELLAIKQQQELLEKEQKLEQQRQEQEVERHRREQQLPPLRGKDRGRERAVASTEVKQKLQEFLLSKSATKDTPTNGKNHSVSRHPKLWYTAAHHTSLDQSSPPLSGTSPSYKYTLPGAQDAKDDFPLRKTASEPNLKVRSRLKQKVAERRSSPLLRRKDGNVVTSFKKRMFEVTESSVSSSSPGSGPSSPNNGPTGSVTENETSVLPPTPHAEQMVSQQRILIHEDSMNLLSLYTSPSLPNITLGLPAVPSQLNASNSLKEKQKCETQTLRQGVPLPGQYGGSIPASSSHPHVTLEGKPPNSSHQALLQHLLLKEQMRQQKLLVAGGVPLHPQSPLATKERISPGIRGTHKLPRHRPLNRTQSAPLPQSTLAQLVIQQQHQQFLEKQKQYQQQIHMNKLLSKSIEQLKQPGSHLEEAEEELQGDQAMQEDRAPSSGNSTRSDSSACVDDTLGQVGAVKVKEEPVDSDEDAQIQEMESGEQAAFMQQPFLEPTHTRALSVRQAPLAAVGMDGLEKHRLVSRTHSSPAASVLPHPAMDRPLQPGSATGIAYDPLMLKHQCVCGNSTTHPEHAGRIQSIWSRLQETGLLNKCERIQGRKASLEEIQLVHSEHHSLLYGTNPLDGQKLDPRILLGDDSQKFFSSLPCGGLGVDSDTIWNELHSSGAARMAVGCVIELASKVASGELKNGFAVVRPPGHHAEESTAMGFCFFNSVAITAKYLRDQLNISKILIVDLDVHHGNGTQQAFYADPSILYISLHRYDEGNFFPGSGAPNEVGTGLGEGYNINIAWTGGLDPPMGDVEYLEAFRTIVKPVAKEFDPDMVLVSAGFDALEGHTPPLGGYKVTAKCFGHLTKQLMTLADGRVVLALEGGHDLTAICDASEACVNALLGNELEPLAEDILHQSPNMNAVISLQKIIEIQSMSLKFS
pIC50: −log10 of the molar value.
Assay endpoint: pIC50

O=C(NO)[C@H](Cc1ccccc1)n1nnc(-c2ccccc2)c1C#Cc1ccccc1	< 4.70

--- query ---
Look up pIC50 with Histone deacetylase 9 (Homo sapiens) for this molecule: "O=C(NO)[C@H](Cc1ccccc1)n1nnc(-c2ccccc2)c1C#CC1CC1"
< 4.70

====

Assay target: UniProt O15379
Sequence (O15379 whole entry, the tested form may be a part): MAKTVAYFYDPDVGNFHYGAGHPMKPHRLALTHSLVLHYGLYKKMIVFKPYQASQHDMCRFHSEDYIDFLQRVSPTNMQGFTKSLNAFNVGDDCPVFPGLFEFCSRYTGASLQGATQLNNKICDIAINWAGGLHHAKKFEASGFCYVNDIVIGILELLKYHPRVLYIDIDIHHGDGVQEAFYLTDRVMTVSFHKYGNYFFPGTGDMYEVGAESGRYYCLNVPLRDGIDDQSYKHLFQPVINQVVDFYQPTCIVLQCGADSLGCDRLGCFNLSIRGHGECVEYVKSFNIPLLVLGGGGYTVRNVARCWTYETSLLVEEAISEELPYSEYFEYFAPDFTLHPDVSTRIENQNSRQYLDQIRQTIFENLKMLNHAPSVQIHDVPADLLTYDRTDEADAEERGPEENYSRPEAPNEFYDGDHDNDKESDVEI
Assay name: Inhibition of recombinant full length human C-terminal His-tagged HDAC3 expressed in sf9 cells co-expressing human N-terminal GST-tagged NCOR2 (395 to 489 residues) using fluorophore-conjugated substrate by fluorescence assay
pIC50: −log10 of the molar value.
Recorded measurements of pIC50, one per entry

O=C(NO)[C@H](Cc1ccccc1)n1nnc(-c2ccccc2)c1C#Cc1ccccc1	< 4.70

Let us examine a further case.
Which pIC50 is reported for this compound? "O=C(NO)[C@H](Cc1ccccc1)n1nnc(-c2ccccc2)c1C#CC1CC1"
< 4.70

====

Assay target: Histone deacetylase 1 (Homo sapiens, UniProt Q13547)
Sequence (Q13547 whole entry): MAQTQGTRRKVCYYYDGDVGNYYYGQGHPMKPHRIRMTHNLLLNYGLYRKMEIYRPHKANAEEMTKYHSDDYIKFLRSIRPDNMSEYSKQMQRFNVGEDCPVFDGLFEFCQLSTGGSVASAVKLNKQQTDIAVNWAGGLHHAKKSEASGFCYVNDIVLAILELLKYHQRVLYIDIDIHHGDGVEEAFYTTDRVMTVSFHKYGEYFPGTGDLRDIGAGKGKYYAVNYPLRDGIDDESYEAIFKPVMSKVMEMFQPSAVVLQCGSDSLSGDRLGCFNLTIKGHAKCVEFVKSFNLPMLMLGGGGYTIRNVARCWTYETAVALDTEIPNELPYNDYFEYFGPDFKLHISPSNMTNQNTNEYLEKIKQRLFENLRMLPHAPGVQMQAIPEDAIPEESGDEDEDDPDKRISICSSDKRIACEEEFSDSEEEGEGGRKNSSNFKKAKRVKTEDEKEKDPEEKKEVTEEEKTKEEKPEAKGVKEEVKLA
Assay name: Inhibition of recombinant full length human C-terminal FLAG/His-tagged HDAC1 expressed in baculovirus expression system using fluorophore-conjugated substrate by fluorescence assay
Assay endpoint: IC50 (µM)
A number alone suffices; assume µM.

// lookup IC50 | system=Histone deacetylase 1 (Homo sapiens, UniProt Q13547) | key= "O=C(NO)[C@H](Cc1ccccc1)n1nnc(-c2ccccc2)c1C#CC1CC1"
4.3

====

Assay target: Protein deacetylase HDAC6 (Homo sapiens, UniProt Q9UBN7)
Sequence (Q9UBN7 whole entry): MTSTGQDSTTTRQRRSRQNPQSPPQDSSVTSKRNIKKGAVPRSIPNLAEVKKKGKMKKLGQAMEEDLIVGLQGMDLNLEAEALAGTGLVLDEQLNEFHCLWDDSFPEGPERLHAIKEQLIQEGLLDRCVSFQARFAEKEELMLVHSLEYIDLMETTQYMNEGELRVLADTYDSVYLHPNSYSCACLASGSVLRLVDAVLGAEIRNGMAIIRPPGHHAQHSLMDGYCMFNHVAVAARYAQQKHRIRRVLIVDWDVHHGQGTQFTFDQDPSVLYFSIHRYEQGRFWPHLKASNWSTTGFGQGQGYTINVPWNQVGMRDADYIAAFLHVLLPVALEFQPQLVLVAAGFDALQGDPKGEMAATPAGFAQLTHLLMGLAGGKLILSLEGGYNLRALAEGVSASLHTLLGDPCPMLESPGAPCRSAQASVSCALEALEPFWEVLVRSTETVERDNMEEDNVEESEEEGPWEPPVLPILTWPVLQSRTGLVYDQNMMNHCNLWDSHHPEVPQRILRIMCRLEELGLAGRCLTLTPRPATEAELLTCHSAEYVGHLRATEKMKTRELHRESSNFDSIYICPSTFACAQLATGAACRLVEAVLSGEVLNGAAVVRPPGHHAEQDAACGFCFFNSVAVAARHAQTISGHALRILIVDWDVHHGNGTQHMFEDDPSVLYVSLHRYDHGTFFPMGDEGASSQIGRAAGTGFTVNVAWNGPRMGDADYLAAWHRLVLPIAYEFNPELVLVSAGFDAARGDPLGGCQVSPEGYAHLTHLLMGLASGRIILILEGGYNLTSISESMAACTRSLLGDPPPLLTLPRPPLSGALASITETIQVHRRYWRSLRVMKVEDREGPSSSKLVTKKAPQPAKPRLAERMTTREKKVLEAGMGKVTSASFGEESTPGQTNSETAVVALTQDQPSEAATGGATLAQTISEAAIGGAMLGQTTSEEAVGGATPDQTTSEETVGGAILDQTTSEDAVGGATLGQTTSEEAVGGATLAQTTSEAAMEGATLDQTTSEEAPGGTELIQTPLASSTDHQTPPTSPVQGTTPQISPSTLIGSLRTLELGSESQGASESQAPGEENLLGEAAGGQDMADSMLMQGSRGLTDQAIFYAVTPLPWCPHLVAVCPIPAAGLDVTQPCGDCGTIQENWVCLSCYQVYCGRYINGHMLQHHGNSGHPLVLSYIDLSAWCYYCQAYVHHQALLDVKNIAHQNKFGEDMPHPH
Assay name: Inhibition of recombinant full length human HDAC6 expressed in sf9 cells using fluorophore-conjugated substrate by fluorescence assay
Assay endpoint: IC50 (µM)

(1) O=C(NO)[C@H](Cc1ccccc1)n1nnc(-c2ccccc2)c1C#CC1CC1
(2) O=C(NO)[C@H](Cc1ccccc1)n1nnc(-c2ccccc2)c1C#Cc1ccccc1
Higher IC50 between 1 and 2 ? Give the chosen item's label as your response.
2

====

Assay target: Histone deacetylase 2 (Homo sapiens, UniProt Q92769)
Sequence (Q92769 whole entry): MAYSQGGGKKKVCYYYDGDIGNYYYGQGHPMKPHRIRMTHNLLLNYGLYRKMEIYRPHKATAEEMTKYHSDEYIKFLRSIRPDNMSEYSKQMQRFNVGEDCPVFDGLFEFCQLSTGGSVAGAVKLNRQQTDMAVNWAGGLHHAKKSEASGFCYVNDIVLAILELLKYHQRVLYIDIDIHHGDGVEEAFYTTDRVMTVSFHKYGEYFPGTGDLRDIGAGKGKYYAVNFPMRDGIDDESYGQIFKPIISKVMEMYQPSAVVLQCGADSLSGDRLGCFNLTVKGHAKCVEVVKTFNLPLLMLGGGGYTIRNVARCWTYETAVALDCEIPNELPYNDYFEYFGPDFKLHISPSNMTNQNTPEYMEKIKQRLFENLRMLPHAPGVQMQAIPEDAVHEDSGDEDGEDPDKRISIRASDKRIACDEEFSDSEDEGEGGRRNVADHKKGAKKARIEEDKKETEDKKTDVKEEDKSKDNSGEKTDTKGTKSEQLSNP
Assay name: Inhibition of recombinant full length human HDAC2 expressed in sf9 cells using fluorophore-conjugated substrate by fluorescence assay
Assay endpoint: IC50

O=C(NO)[C@H](Cc1ccccc1)n1nnc(-c2ccccc2)c1C#Cc1ccccc1	> 20 µM

Moving on to the next compound.
Entry "O=C(NO)[C@H](Cc1ccccc1)n1nnc(-c2ccccc2)c1C#CC1CC1" : reported IC50 = ?
> 20 µM

====

Assay target: UniProtKB Q9BY41
Sequence (Q9BY41 whole entry): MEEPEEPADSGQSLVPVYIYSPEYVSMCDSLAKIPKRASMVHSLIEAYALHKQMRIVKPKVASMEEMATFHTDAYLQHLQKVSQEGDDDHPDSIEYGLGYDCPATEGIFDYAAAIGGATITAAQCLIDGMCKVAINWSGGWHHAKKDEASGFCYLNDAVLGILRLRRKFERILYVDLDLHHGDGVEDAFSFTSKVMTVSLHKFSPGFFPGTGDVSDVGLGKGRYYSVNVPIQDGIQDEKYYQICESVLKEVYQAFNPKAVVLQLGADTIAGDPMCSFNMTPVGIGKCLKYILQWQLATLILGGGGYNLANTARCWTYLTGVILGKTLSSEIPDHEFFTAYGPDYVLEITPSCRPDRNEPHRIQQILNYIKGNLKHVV
Assay name: Inhibition of HDAC8 (unknown origin) using fluorophore-conjugated substrate by fluorescence assay
pIC50: −log10 of the molar value.
Assay endpoint: pIC50

Worked examples follow.
CCC/C=C/c1c(-c2ccccc2)nnn1[C@@H](Cc1ccccc1)C(=O)NO	6.33
O=C(NO)[C@H](Cc1ccccc1)n1nnc(-c2ccccc2)c1C#Cc1ccc(-c2ccccc2)cc1	5.04
O=C(NO)[C@H](Cc1ccccc1)n1nnc(-c2ccsc2)c1C#CC1CC1	8.40

(I) O=C(NO)[C@H](Cc1c[nH]c2ccccc12)n1nnc(-c2ccccc2)c1C#CC1CC1
(II) CCCCCc1c(-c2ccccc2)nnn1[C@@H](Cc1ccccc1)C(=O)NO
(III) CCc1ccc(C#Cc2c(-c3ccccc3)nnn2[C@@H](Cc2ccccc2)C(=O)NO)cc1
Ascending by pIC50, please: list the compounds accordingly. Use the labels to give the requested order.
III, II, I
(III: 5.82, II: 6.80, I: 8.15)
